The origin of these recorded values is patent US10875876B2.

# Measurement description: Cytotoxicity in HepG2 cells, Resazurin assay
# Reported conditions: human, HepG2 cells, TOX-HepG2-4 d CC50 (μM), HepG2 cells incubated for 4 days, viability by Resazurin assay

Compound: C[C@H]1C=Cc2c(cn(C)c2C(=O)Nc2ccnc(Br)c2)S(=O)(=O)N1 (single isomer, unassigned) [Compound 50]
CC50 at 4 days: > 25 µM

Compound: CC(C)[C@H]1Oc2c(cn(C)c2C(=O)Nc2ccc(F)c(F)c2)S(=O)(=O)N[C@@H]1CO [compound 240]
CC50 at 4 days: > 25 µM

Compound: CCC(O)[C@@H]1COc2c(cn(C)c2C(=O)Nc2ccc(F)c(C(F)F)c2)S(=O)(=O)N1 (single isomer, unassigned) [Compound 144a]
CC50 at 4 days: > 25 µM

Compound: Cn1cc2c(c1C(=O)Nc1ccc(F)c(C#N)c1)CCC(C(C)(F)F)NS2(=O)=O (stereo not shown) [Compound 118]
CC50 at 4 days: > 25 µM

Compound: Cn1cc2c(c1C(=O)Nc1ccc(F)c(F)c1)OCC(C(O)c1ccncc1)NS2(=O)=O (stereo not shown) [Compound 183]
CC50 at 4 days: > 25 µM

Compound: Cn1cc2c(c1C(=O)Nc1ccc(F)c(Cl)c1)OCC(C)(Cc1ccc(Cl)nc1)NS2(=O)=O (stereo not shown) [Compound 198]
CC50 at 4 days: > 25 µM

Compound: C[C@H]1CCc2c(cn(C)c2C(=O)Nc2ccnc(C(F)F)c2)S(=O)(=O)N1 [Compound 165]
CC50 at 4 days: > 25 µM

Compound: Cn1cc2c(c1C(=O)Nc1ccc(F)c(C(F)F)c1)CCC(C(C)(C)O)NS2(=O)=O (single isomer, unassigned) [Compound 150a]
CC50 at 4 days: > 25 µM

Compound: C[C@H]1NS(=O)(=O)c2cn(C)c(C(=O)Nc3ccc(F)c(F)c3)c2O[C@@H]1C [compound 231]
CC50 at 4 days: > 25 µM

Compound: CC1CNc2c(cn(C)c2C(=O)Nc2ccc(F)c(F)c2)S(=O)(=O)N1 (stereo not shown) [Compound 67]
CC50 at 4 days: > 25 µM

* * *

# Measurement description: Cytotoxicity in HepG2 cells, Resazurin assay
# Reported conditions: human, HepG2 cells, TOX-HepG2-4 d CC50 (μM), HepG2 cells incubated for 4 days, viability by Resazurin assay

Compound: CC(C)[C@H]1COc2c(ccc(F)c2C(=O)Nc2ccc(F)c(C#N)c2)S(=O)(=O)N1 [Compound 45]
CC50 at 4 days: > 25 µM
--
Compound: Cn1cc2c(c1C(=O)Nc1ccnc(C(F)(F)F)c1)CCC(C(F)(F)F)NS2(=O)=O (single isomer, unassigned) [Compound 59a]
CC50 at 4 days: > 25 µM
--
Compound: Cc1cc(CC2(C)COc3c(cn(C)c3C(=O)Nc3ccnc(C(F)F)c3)S(=O)(=O)N2)no1 (single isomer, unassigned) [Compound 209a]
CC50 at 4 days: > 25 µM

* * *

Attribute measured: melting point

Molecule: CC(C)C(O)C1COc2c(cn(C)c2C(=O)Nc2ccc(F)c(C#N)c2)S(=O)(=O)N1 (racemic)
Value measured: 213.7 °C

Molecule: C[C@H](O)[C@H]1C=Cc2c(cn(C)c2C(=O)Nc2ccc(F)c(C(F)F)c2)S(=O)(=O)N1 [Compound 96]
Value measured: 182.3 °C

Molecule: Cn1cc2c(c1C(=O)Nc1ccc(F)c(F)c1)C=CC(C(F)(F)F)NS2(=O)=O (stereo not shown) [Compound 8]
Value measured: 245.6 °C

Molecule: CCC(O)[C@@H]1COc2c(cn(C)c2C(=O)Nc2ccc(F)c(F)c2)S(=O)(=O)N1 (stereo in doubt)
Value measured: 212.6 °C

Molecule: Cn1cc2c(c1C(=O)Nc1ccc(F)c(F)c1)OCC(C)(c1ccccc1)NS2(=O)=O (stereo not shown) [Compound 125]
Value measured: 256.6 °C

Molecule: Cc1cccc(C2(C)COc3c(cn(C)c3C(=O)Nc3ccc(F)c(C(F)F)c3)S(=O)(=O)N2)n1 (racemic) [Compound 177]
Value measured: 210.2 °C

Molecule: Cc1cccc(C2(C)COc3c(cn(C)c3C(=O)Nc3ccc(F)c(F)c3)S(=O)(=O)N2)n1 (single isomer, unassigned) [Compound 168a]
Value measured: 221.9 °C
